Target: Butyrylcholinesterase (Rattus norvegicus, UniProt Q9JKC1)
Sequence (Q9JKC1 whole entry): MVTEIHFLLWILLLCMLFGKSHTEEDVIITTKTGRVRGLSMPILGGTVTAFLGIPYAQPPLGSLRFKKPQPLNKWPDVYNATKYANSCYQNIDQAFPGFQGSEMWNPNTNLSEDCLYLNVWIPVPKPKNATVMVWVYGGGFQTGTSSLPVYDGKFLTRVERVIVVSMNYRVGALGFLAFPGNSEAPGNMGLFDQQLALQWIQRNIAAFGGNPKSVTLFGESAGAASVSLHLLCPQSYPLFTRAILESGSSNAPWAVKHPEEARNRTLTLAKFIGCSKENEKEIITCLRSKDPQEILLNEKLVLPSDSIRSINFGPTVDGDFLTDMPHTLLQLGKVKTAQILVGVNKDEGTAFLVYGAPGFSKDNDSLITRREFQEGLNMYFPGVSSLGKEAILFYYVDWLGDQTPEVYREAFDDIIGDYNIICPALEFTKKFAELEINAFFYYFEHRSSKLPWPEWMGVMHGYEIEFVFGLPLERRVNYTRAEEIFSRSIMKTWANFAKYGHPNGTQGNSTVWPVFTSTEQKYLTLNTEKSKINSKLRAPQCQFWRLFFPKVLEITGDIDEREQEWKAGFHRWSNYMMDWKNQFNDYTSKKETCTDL
Test: Inhibition of rat plasma BChE by Ellman's method
Response field label: string, one of condition met (IC50 strictly below 60 nM) or condition not met.

CN1CC[C@@]2(C)c3cc(OC(=O)Nc4cccc(C#N)c4)ccc3N(C)[C@@H]12 : condition not met

For this compound, is IC50 lower than 60 nM? CN1CC[C@@]2(C)c3cc(OC(=O)Nc4cc(Cl)cc(Cl)c4)ccc3N(C)[C@@H]12
condition not met

====

Target: Acetylcholinesterase and butyrylcholinesterase (AChE and BChE) (Rattus norvegicus) (UniProt P37136+Q9JKC1)
Sequence (P37136 whole entry): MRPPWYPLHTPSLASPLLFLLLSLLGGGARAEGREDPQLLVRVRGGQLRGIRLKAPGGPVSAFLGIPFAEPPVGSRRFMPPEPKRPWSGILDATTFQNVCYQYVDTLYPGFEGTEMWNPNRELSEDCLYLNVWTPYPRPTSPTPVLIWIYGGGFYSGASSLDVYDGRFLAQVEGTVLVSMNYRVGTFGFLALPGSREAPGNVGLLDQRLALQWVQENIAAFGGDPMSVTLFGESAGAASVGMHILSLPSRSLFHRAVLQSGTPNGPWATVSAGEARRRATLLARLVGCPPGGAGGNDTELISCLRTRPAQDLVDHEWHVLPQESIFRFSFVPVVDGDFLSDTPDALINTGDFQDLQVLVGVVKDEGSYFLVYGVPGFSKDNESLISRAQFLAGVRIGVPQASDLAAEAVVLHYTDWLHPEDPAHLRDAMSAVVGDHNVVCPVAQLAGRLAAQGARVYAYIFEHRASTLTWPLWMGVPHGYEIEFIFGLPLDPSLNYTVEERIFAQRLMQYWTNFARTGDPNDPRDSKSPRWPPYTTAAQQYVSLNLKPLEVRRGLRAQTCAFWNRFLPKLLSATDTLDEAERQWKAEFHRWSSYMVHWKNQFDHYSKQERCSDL
Sequence (Q9JKC1 1-597): as the sequence (Q9JKC1 whole entry) above
Assay: Selectivity ratio of IC50 for rat brain AChE to IC50 rat plasma BChE
Type: cell-free
Catalogue of compounds with associated Ratio IC50

CN1CC[C@@]2(C)c3cc(OC(=O)Nc4ccc(Br)cc4)ccc3N(C)[C@@H]12 : 7
CN1CC[C@@]2(C)c3cc(OC(=O)Nc4ccccc4Cl)ccc3N(C)[C@@H]12 : 3
COc1ccc(NC(=O)Oc2ccc3c(c2)[C@]2(C)CCN(C)[C@@H]2N3C)cc1 : 5

Entry CN1CC[C@@]2(C)c3cc(OC(=O)Nc4ccc(Cl)cc4)ccc3N(C)[C@@H]12 has what Ratio IC50?
15
